target: T1, TRCW5 antigen (CD3δε-Fc-Avi) (biotinylated (site not stated)); test: ELISA
T1 construct: also called recombinant CD3
T1 sequence (chain, as listed by the source mutant limits assumed): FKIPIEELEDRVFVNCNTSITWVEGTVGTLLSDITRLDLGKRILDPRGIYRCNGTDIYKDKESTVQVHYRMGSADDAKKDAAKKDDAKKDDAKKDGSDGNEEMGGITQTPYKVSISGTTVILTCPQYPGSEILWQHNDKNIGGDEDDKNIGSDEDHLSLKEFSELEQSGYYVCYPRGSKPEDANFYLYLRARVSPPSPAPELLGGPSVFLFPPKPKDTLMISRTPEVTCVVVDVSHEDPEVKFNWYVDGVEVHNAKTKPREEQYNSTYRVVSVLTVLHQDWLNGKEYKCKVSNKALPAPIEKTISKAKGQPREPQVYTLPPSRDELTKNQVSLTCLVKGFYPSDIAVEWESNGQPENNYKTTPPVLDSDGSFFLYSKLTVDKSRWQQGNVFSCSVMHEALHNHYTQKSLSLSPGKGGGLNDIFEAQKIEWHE
observed.property: pEC50
Scale for pEC50: -log10 of concentration given in mol/L; no unit attached.

Solved entries:
- CD3B2089 (scFv) scFv: QVQLVQSGAEVKKPGSSVKVSCKASGYTFTRSTMHWVRQAPGQGLEWMGYINPSSAYTNYAQKFQGRVTLTADKSTSTAYMELSSLRSEDTAVYYCASPQVHYDYNGFPYWGQGTLVTVSSGGSEGKSSGSGSESKSTGGSEIVLTQSPATLSASPGERVTLSCSASSSVSYMNWYQQKPGQAPRRWIYDSSKLASGVPARFSGSGSGRDYTLTISSLEPEDFAVYYCQQWSRNPPTFGGGTKVEIK: 8.06
- CD3B2051 N106A (scFv) scFv: QVQLVQSGAEVKKPGSSVKVSCKASGYTFTRSTMHWVKQAPGQGLEWMGYINPSSAYTNYNQKFQGRVTLTADKSTSTAYMELSSLRSEDTAVYYCASPQVHYDYAGFPYWGQGTLVTVSSGGSEGKSSGSGSESKSTGGSEIVLTQSPATLSASPGERVTLSCSASSSVSYMNWYQQKPGQAPRRLIYDSSKLASGVPARFSGSGSGRDYTLTISSLEPEDFAVYYCQQWSRNPPTFGGGTKVEIK: 7.92

Look up pEC50: CD3B2089 G107Y (scFv) scFv: QVQLVQSGAEVKKPGSSVKVSCKASGYTFTRSTMHWVRQAPGQGLEWMGYINPSSAYTNYAQKFQGRVTLTADKSTSTAYMELSSLRSEDTAVYYCASPQVHYDYNYFPYWGQGTLVTVSSGGSEGKSSGSGSESKSTGGSEIVLTQSPATLSASPGERVTLSCSASSSVSYMNWYQQKPGQAPRRWIYDSSKLASGVPARFSGSGSGRDYTLTISSLEPEDFAVYYCQQWSRNPPTFGGGTKVEIK
7.67

Values compiled from patent US20250145711A1.
